Would you mind telling me the reported ΔTm of each entry?
// units = °C; emit number, no label

Challenge: Lab request: please report ΔTm under test system Ribosomal protein S6 kinase alpha-3 (Homo sapiens) (UniProt P51812) for CN(C)CCCn1cc(C2=C(c3c[nH]c4ccccc34)C(=O)NC2=O)c2ccccc21
Response given: 0.8

Challenge: Lab request: please report ΔTm under test system Ribosomal protein S6 kinase alpha-3 (Homo sapiens) (UniProt P51812) for O=C1NC(=O)c2c1c1c3ccccc3[nH]c1n1cncc21 [ISOGRANULATIMIDE]
Response given: 2.5

Challenge: Lab request: please report ΔTm under test system Ribosomal protein S6 kinase alpha-3 (Homo sapiens) (UniProt P51812) for CC(C)N(CCO)c1nc(Nc2cccc(Cl)c2)c2ncn(C(C)C)c2n1
Response given: 0.6

Challenge: Lab request: please report ΔTm under test system Ribosomal protein S6 kinase alpha-3 (Homo sapiens) (UniProt P51812) for C/C(O)=C(\C#N)C(=O)Nc1cc(Br)ccc1Br
Response given: 0.2

Challenge: Lab request: please report ΔTm under test system Ribosomal protein S6 kinase alpha-3 (Homo sapiens) (UniProt P51812) for Cn1cnc2c(NCc3ccccc3)nc(NCCO)nc21
Response given: -0.2

Challenge: Lab request: please report ΔTm under test system Ribosomal protein S6 kinase alpha-3 (Homo sapiens) (UniProt P51812) for O=C1Nc2cc(Br)ccc2/C1=C1/Nc2ccccc2/C1=N\O
Response given: 4.6

Challenge: Lab request: please report ΔTm under test system Ribosomal protein S6 kinase alpha-3 (Homo sapiens) (UniProt P51812) for CCOC(=O)c1cnc2oc3ccc(O)cc3c2c1-c1ccccc1
Response given: 1

Challenge: Lab request: please report ΔTm under test system Ribosomal protein S6 kinase alpha-3 (Homo sapiens) (UniProt P51812) for CCN1/C(=C/C(C)=O)Sc2ccc(OC)cc21
Response given: -0.6

Challenge: Lab request: please report ΔTm under test system Ribosomal protein S6 kinase alpha-3 (Homo sapiens) (UniProt P51812) for Cc1ccc(NC2=CC(=O)c3sc(C)nc3C2=O)cc1
Response given: -0.9

Challenge: Lab request: please report ΔTm under test system Ribosomal protein S6 kinase alpha-3 (Homo sapiens) (UniProt P51812) for CN(C)C[C@@H]1CCn2cc(c3ccccc32)C2=C(C(=O)NC2=O)c2cn(c3ccccc23)CCO1
Response given: 0.9

Challenge: Lab request: please report ΔTm under test system Ribosomal protein S6 kinase alpha-3 (Homo sapiens) (UniProt P51812) for CN(C)c1ncnc2nc[nH]c12
Response given: 0.8

Challenge: Lab request: please report ΔTm under test system Ribosomal protein S6 kinase alpha-3 (Homo sapiens) (UniProt P51812) for COc1cc2ncnc(Nc3cccc(Br)c3)c2cc1OC
Response given: 0.1

Challenge: Lab request: please report ΔTm under test system Ribosomal protein S6 kinase alpha-3 (Homo sapiens) (UniProt P51812) for COc1cc(OC)c(/C=C2\C(=O)Nc3ccccc32)c(OC)c1
Response given: 0.1

Challenge: Lab request: please report ΔTm under test system Ribosomal protein S6 kinase alpha-3 (Homo sapiens) (UniProt P51812) for CC(C)(C)c1cc(C=C2C(=O)C=CC2=O)cc(C(C)(C)C)c1O
Response given: -5

Challenge: Lab request: please report ΔTm under test system Ribosomal protein S6 kinase alpha-3 (Homo sapiens) (UniProt P51812) for Nc1cccc(-c2cc3c(Oc4cccc(O)c4)ncnc3[nH]2)c1
Response given: 5.7

Challenge: Lab request: please report ΔTm under test system Ribosomal protein S6 kinase alpha-3 (Homo sapiens) (UniProt P51812) for CN(C)CC1CCn2c(c(C3=C(c4c[nH]c5ccccc45)C(=O)NC3=O)c3ccccc32)C1 (configuration not stated)
Response given: 0.8

Challenge: Lab request: please report ΔTm under test system Ribosomal protein S6 kinase alpha-3 (Homo sapiens) (UniProt P51812) for O=C1C(Cl)=C(N2C(=O)CCC2=O)C(=O)c2ccccc21
Response given: -2.4

Challenge: Lab request: please report ΔTm under test system Ribosomal protein S6 kinase alpha-3 (Homo sapiens) (UniProt P51812) for N=C(N)NCCNS(=O)(=O)c1cccc2cnccc12
Response given: 0.6

Challenge: Lab request: please report ΔTm under test system Ribosomal protein S6 kinase alpha-3 (Homo sapiens) (UniProt P51812) for O=S(=O)(c1cccc2c(Cl)cccc12)N1CCCNCC1
Response given: -0.2

Challenge: Lab request: please report ΔTm under test system Ribosomal protein S6 kinase alpha-3 (Homo sapiens) (UniProt P51812) for O=C(Nc1cccc(Nc2nccc(Nc3cccc(C(F)(F)F)c3)n2)c1)C1CC1
Response given: 5.7

Challenge: Lab request: please report ΔTm under test system Ribosomal protein S6 kinase alpha-3 (Homo sapiens) (UniProt P51812) for C=CNC#N
Response given: 1

Challenge: Lab request: please report ΔTm under test system Ribosomal protein S6 kinase alpha-3 (Homo sapiens) (UniProt P51812) for O=C1NC(=O)c2c1c1c3ccccc3n3c1c1c2c2ccccc2n1C1CCC3O1
Response given: -0.4

###

Would you mind telling me the reported ΔTm of each entry?
// units = °C; emit number, no label

Challenge: Lab request: please report ΔTm under test system Serine/threonine-protein kinase OSR1 (Homo sapiens) for O=C1NC(=O)C(c2c[nH]c3ccccc23)=C1c1c[nH]c2ccccc12
Response given: 2

Challenge: Lab request: please report ΔTm under test system Serine/threonine-protein kinase OSR1 (Homo sapiens) for COc1ccc(S(=O)(=O)N(CCO)c2ccccc2CN(C)C/C=C/c2ccc(Cl)cc2)cc1
Response given: -0.7

Challenge: Lab request: please report ΔTm under test system Serine/threonine-protein kinase OSR1 (Homo sapiens) for C[S+]([O-])c1ccc(CSc2nc(-c3ccc(F)cc3)c(-c3ccncc3)[nH]2)cc1 (stereo not given)
Response given: 0.1

Challenge: Lab request: please report ΔTm under test system Serine/threonine-protein kinase OSR1 (Homo sapiens) for Cc1ccc(NC(=O)c2cccc(N(C)C)c2)cc1NC(=O)c1ccc(O)cc1
Response given: 2

Challenge: Lab request: please report ΔTm under test system Serine/threonine-protein kinase OSR1 (Homo sapiens) for CC(C)(C)c1cc(C=C2C(=O)C=CC2=O)cc(C(C)(C)C)c1O
Response given: 0.3

###

Would you mind telling me the reported ΔTm of each entry?
// units = °C; emit number, no label

Challenge: Lab request: please report ΔTm under test system Serine/threonine-protein kinase PAK 6 (Homo sapiens) for N#C/C(=C1/Nc2ccccc2S1)c1ccnc(NCCc2cccnc2)n1
Response given: 1.6

Challenge: Lab request: please report ΔTm under test system Serine/threonine-protein kinase PAK 6 (Homo sapiens) for O=C1Nc2ccccc2/C1=C1/Nc2ccccc2/C1=N\O
Response given: 2.9

Challenge: Lab request: please report ΔTm under test system Serine/threonine-protein kinase PAK 6 (Homo sapiens) for O=c1sn(Cc2ccccc2)c(=S)n1Cc1ccccc1
Response given: 0.1

Challenge: Lab request: please report ΔTm under test system Serine/threonine-protein kinase PAK 6 (Homo sapiens) for c1ccc(-c2n[nH]c3c2oc2ccccc23)cc1
Response given: -0.3

Challenge: Lab request: please report ΔTm under test system Serine/threonine-protein kinase PAK 6 (Homo sapiens) for Nc1n[nH]c2nnc(-c3c(-c4ccccc4)nn4ccccc34)cc12
Response given: 0.1

Challenge: Lab request: please report ΔTm under test system Serine/threonine-protein kinase PAK 6 (Homo sapiens) for COc1ccc(CNc2nc(N(CCO)CCO)nc3c2ncn3C(C)C)cc1
Response given: 1.2

Challenge: Lab request: please report ΔTm under test system Serine/threonine-protein kinase PAK 6 (Homo sapiens) for CC(C)N(CCO)c1nc(Nc2cccc(Cl)c2)c2ncn(C(C)C)c2n1
Response given: 5.3

Challenge: Lab request: please report ΔTm under test system Serine/threonine-protein kinase PAK 6 (Homo sapiens) for O=c1c(-c2ccc(F)cc2)c(-c2ccncc2)[nH]n1-c1ccc(Cl)cc1
Response given: -0.4

Challenge: Lab request: please report ΔTm under test system Serine/threonine-protein kinase PAK 6 (Homo sapiens) for COc1cc(/C=C/C(=O)CC(=O)/C=C/c2ccc(O)c(OC)c2)ccc1O
Response given: 1.6

Challenge: Lab request: please report ΔTm under test system Serine/threonine-protein kinase PAK 6 (Homo sapiens) for Oc1cc(O)cc(/C=C/c2ccc(O)c(O)c2)c1
Response given: 0.5

Challenge: Lab request: please report ΔTm under test system Serine/threonine-protein kinase PAK 6 (Homo sapiens) for CCN1/C(=C/C(C)=O)Sc2ccc(OC)cc21
Response given: -0.9

###

Would you mind telling me the reported ΔTm of each entry?
// units = °C; emit number, no label

Challenge: Lab request: please report ΔTm under test system Serine/threonine-protein kinase PLK4 (Homo sapiens) for O=c1c(O)c(-c2ccc(O)c(O)c2)oc2cc(O)cc(O)c12
Response given: 7.4

Challenge: Lab request: please report ΔTm under test system Serine/threonine-protein kinase PLK4 (Homo sapiens) for COC1=C2C[C@@H](C)C[C@H](OC)[C@H](O)[C@@H](C)/C=C(\C)[C@H](OC(N)=O)[C@@H](OC)/C=C\C=C(/C)C(=O)NC(=CC1=O)C2=O
Response given: 0.2

Challenge: Lab request: please report ΔTm under test system Serine/threonine-protein kinase PLK4 (Homo sapiens) for O=Nc1c(-c2c(O)[nH]c3ccccc23)[nH]c2ccccc12
Response given: 8.9

Challenge: Lab request: please report ΔTm under test system Serine/threonine-protein kinase PLK4 (Homo sapiens) for COc1ccc(S(=O)(=O)N(CCO)c2ccccc2CN(C)C/C=C/c2ccc(Cl)cc2)cc1
Response given: 1

Challenge: Lab request: please report ΔTm under test system Serine/threonine-protein kinase PLK4 (Homo sapiens) for NC(=O)c1ccc2[nH]c(-c3ccc(Oc4ccc(Cl)cc4)cc3)nc2c1
Response given: 1.4

Challenge: Lab request: please report ΔTm under test system Serine/threonine-protein kinase PLK4 (Homo sapiens) for N#C/C(=C(/N)Sc1ccc(N)cc1)c1ccccc1C(F)(F)F
Response given: 0.1

Challenge: Lab request: please report ΔTm under test system Serine/threonine-protein kinase PLK4 (Homo sapiens) for O=C1Nc2ccccc2/C1=C\c1ccc[nH]1
Response given: 6

Challenge: Lab request: please report ΔTm under test system Serine/threonine-protein kinase PLK4 (Homo sapiens) for COc1nccc(-c2c(-c3ccc(F)cc3)ncn2[C@H]2CC[C@H](O)CC2)n1
Response given: 0.1

Challenge: Lab request: please report ΔTm under test system Serine/threonine-protein kinase PLK4 (Homo sapiens) for Oc1cccc(-c2nc(N3CCOCC3)c3oc4ncccc4c3n2)c1
Response given: 0.4

Challenge: Lab request: please report ΔTm under test system Serine/threonine-protein kinase PLK4 (Homo sapiens) for O=C1Nc2ccccc2/C1=C1/Nc2ccccc2/C1=N\O
Response given: 10.9

Challenge: Lab request: please report ΔTm under test system Serine/threonine-protein kinase PLK4 (Homo sapiens) for Brc1c(Br)c(Br)c2[nH]nnc2c1Br
Response given: 4.4

Challenge: Lab request: please report ΔTm under test system Serine/threonine-protein kinase PLK4 (Homo sapiens) for Cn1cc(C2=C(c3cn(CCCN)c4ccccc34)C(=O)NC2=O)c2ccccc21
Response given: 1.8

Challenge: Lab request: please report ΔTm under test system Serine/threonine-protein kinase PLK4 (Homo sapiens) for Oc1cc(O)cc(/C=C/c2ccc(O)c(O)c2)c1
Response given: 1.1

Challenge: Lab request: please report ΔTm under test system Serine/threonine-protein kinase PLK4 (Homo sapiens) for O=C1C(Cl)=C(N2C(=O)CCC2=O)C(=O)c2ccccc21
Response given: -3.7

Challenge: Lab request: please report ΔTm under test system Serine/threonine-protein kinase PLK4 (Homo sapiens) for COc1ccc(CNC(=O)Nc2ncc([N+](=O)[O-])s2)cc1
Response given: 1

Challenge: Lab request: please report ΔTm under test system Serine/threonine-protein kinase PLK4 (Homo sapiens) for CC(C)c1cc(/C=C(\C#N)C(=O)NCCCc2ccccc2)cc(C(C)C)c1O
Response given: 0.9

Challenge: Lab request: please report ΔTm under test system Serine/threonine-protein kinase PLK4 (Homo sapiens) for Cc1cc(C=C2C(=O)C=CC2=O)cc(C)c1O
Response given: 1.3

Challenge: Lab request: please report ΔTm under test system Serine/threonine-protein kinase PLK4 (Homo sapiens) for O=S(=O)(NCCNC/C=C/c1ccc(Br)cc1)c1cccc2cnccc12
Response given: 1.1

Challenge: Lab request: please report ΔTm under test system Serine/threonine-protein kinase PLK4 (Homo sapiens) for CCOc1ccc(/C=C2/SC(=O)N(CCN)C2=O)cc1
Response given: 0.3

Challenge: Lab request: please report ΔTm under test system Serine/threonine-protein kinase PLK4 (Homo sapiens) for COc1cccc(-c2cc(=O)c3ccccc3o2)c1N
Response given: 0.2

Challenge: Lab request: please report ΔTm under test system Serine/threonine-protein kinase PLK4 (Homo sapiens) for COc1ccc(Cl)cc1NC(=O)Nc1cc(C)nc2ccccc12
Response given: 3.4
